Consider compounds characterized by their Ki with F. tularensis GyrB (Francisella tularensis subsp. tularensis, UniProt Q5NHE7).
Sequence (Q5NHE7 1-805): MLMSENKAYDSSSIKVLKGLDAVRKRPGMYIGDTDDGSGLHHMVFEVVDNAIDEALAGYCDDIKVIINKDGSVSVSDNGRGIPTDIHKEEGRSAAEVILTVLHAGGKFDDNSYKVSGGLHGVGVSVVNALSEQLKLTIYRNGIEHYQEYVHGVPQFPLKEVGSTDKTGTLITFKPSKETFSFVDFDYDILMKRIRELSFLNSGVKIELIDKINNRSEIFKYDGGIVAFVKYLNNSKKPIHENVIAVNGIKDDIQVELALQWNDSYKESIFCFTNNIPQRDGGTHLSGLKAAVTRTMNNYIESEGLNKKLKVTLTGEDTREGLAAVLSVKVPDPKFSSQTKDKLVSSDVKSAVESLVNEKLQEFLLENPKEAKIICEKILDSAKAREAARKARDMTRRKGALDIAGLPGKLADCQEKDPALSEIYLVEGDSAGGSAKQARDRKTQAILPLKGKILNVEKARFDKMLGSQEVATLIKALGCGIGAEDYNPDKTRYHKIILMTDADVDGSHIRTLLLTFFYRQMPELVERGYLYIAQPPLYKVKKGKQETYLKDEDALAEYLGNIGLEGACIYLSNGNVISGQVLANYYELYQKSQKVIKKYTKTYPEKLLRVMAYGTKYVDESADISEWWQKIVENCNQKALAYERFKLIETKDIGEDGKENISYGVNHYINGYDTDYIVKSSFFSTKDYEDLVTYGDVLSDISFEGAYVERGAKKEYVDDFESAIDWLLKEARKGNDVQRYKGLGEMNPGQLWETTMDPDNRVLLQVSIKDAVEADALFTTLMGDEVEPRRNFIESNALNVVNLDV
Give bare numbers, in nM.

Reference set (3 entries):
compound	Ki [nM]
COc1cccc2c1C(=O)c1c(O)c3c(c(O)c1C2=O)C[C@@](O)(C(=O)CO)C[C@@H]3O[C@H]1C[C@H](N)[C@H](O)[C@H](C)O1 [doxorubicin]	94
COc1cccc2c1C(=O)c1c(O)c3c(c(O)c1C2=O)C[C@@](O)(C(=O)CO)C[C@@H]3O[C@H]1C[C@H](N)[C@@H](O)[C@H](C)O1 [epirubicin]	386
CC(=O)[C@]1(O)Cc2c(O)c3c(c(O)c2[C@@H](O[C@H]2C[C@H](N)[C@H](O)[C@H](C)O2)C1)C(=O)c1ccccc1C3=O [idarubicin]	480

input: Record request: Ki value, item COc1cccc2c1C(=O)c1c(O)c3c(c(O)c1C2=O)C[C@@](O)(C(C)=O)C[C@@H]3O[C@H]1C[C@H](N)[C@H](O)[C@H](C)O1 [daunorubicin]
output: 444

====

biological target: E. coli gyrase A2B2 heterotetramer (Escherichia coli); construct: purchased Topogen; test: Gyrase activity assay (supercoiling of relaxed plasmid DNA); assay type: biochemical; conditions: 50 μM compound, 0.5 μg relaxed DNA, 1 hour at 37° C., agarose gel
measured.endpoint: inhibition of supercoiling of relaxed DNA

compound	observed.result
COc1cccc2c1C(=O)c1c(O)c3c(c(O)c1C2=O)C[C@@](O)(C(C)=O)C[C@@H]3O[C@H]1C[C@H](N)[C@H](O)[C@H](C)O1 [daunorubicin]	less clear
CC(=O)[C@]1(O)Cc2c(O)c3c(c(O)c2[C@@H](O[C@H]2C[C@H](N)[C@H](O)[C@H](C)O2)C1)C(=O)c1ccccc1C3=O [idarubicin]	less clear
